- systemTested: phosphodiesterase 5A (PDE5) (Homo sapiens, UniProt O76074)
- Construct: purchased BSP Bioscience 60350
- methodDescription: PDE5A Assay Kit, fluorescence polarization
- Type: biochemical
- conditionDescription: read-out: Inhibitory effect on PDE5 IC-50
metricName: IC50 (µM)

INSERT INTO assay_data (chemicalsmiles, reported) VALUES
  ('N#C/C(=C\CO[C@@H]1O[C@H](CO)[C@@H](O)[C@H](O)[C@H]1O)COC(=O)c1ccc(O)cc1', 3.4),
  ('N#C/C(=C\CO[C@@H]1O[C@H](CO)[C@@H](O)[C@H](O)[C@H]1O)COC(=O)/C=C/c1ccc(O)cc1', 17.2),
  ('COc1cc(/C=C/C(=O)OC/C(C#N)=C/CO[C@@H]2O[C@H](CO)[C@@H](O)[C@H](O)[C@H]2O)ccc1O', 5.4),
  ('N#C/C(=C\CO[C@@H]1O[C@H](CO)[C@@H](O)[C@H](O)[C@H]1O)COC(=O)/C=C/c1ccc(O)c(O)c1', 2.1);

Just for reference, patent US9023816B2 is where these values come from.
